Test system: ACHN renal
test.summary: NCI-60 one-dose screen, 48 h
condition.parameters: 10 µM unless noted
About 83,000 compounds went through this panel and 20% of them were active in at least one assay; those are over-represented in the sample as a whole. Calls of active or inactive are those of the source. Rule for the calls: active = growth percent below 10; inactive = the rest.
Possible outcomes: 1.0 for active, 0.0 for inactive

> print(dat)
                                   compound  class.name
1  O=C(N=Nc1c(O)[nH]c2ccc(Cl)cc12)c1ccc2nc(-c3ccc(Cl)cc3)[nH]c2c1         0.0
2  Cc1nn(-c2ccccc2)c2nc(C)n(C(=O)N/N=C/c3ccccc3)c(=O)c12         0.0
3  CCN(C(=O)CN1C(=O)/C(=C/c2ccco2)SC1=S)C1CCS(=O)(=O)C1 (stereo not given)         0.0
4  O=C(N/N=C/c1ccoc1)c1[nH]c2ccc(Br)cc2c1-c1ccccc1         1.0
5  COc1ccc(NC(=O)CSc2nnc(-c3ccc(-c4nc5ccc(Cl)cc5[nH]4)cc3)o2)cc1         1.0
